Taken from paper PMC7864924.

- system tested: engineered OX2R carrying an additional amino-terminal Avi-tag, biotinylated (Homo sapiens, UniProt O43614, residues V261–A291 deleted, biotin on the Avi-tag (BirA biotin-protein ligase))
- Sequence (O43614 other isoform, or with tags, fused parts or gaps residues V261–A291 deleted | residues V261–A291 deleted): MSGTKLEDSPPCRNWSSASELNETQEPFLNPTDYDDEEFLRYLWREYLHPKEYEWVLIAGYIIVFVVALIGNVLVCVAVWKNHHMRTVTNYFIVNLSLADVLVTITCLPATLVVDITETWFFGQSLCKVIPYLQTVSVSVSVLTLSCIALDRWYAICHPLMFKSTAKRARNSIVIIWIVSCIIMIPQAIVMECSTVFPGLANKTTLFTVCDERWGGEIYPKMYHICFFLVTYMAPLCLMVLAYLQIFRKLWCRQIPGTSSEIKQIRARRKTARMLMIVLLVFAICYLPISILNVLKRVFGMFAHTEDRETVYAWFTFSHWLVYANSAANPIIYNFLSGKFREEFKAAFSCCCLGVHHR
observed property: binding result

INSERT INTO results (binder, result) VALUES
  ('30 (VHH) VHH: QVQLVESGGGLVQAGGSLRLSCAASGFPVKTYTMYWYRQAPGKEREWVAAIESTGRYTAYADSVKGRFTISRDNAKNTVYLQMNSLKPEDTAVYYCEVYVGFFYHGQGTQVTVS', 'binds'),
  ('17 (VHH) VHH: QVQLVESGGGLVQAGGSLRLSCAASGFPVVGWHMYWYRQAPGKEREWVAAINSSGKKTLYADSVKGRFTISRDNAKNTVYLQMNSLKPEDTAVYYCNVKDAGWFWYNYDYWGQGTQVTVS', 'binds');
